Target: Ba/F3-FGFR3-transfected cells (Homo sapiens, UniProt P22607)
Construct: BAF3-FGFR3 (MIN IL3) pIC50; other: minus IL3
Sequence (P22607 whole entry, change not shown): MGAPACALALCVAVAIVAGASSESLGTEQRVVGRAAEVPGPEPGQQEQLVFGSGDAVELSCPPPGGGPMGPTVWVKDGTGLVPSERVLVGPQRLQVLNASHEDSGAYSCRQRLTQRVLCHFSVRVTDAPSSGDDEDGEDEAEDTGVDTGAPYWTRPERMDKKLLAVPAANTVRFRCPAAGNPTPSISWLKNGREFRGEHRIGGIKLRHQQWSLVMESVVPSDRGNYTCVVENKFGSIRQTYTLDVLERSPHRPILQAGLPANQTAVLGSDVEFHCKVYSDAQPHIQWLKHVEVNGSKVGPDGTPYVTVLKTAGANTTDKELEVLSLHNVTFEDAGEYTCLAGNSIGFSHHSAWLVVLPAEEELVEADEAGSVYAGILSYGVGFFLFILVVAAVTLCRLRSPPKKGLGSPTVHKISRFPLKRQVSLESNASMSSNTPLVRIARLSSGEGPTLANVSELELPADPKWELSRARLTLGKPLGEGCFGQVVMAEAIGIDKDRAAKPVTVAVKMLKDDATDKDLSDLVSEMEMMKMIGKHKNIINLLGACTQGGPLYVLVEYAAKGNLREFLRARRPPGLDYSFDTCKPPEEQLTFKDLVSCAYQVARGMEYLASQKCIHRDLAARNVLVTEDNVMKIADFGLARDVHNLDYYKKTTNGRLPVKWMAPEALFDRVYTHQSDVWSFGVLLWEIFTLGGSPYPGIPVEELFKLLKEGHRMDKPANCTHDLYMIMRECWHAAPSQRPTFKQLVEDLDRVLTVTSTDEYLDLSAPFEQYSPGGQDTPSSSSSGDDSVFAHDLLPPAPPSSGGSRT
Assay: Ba/F3-FGFR3 (minus IL3) cellular proliferation assay, Alamar Blue
Format: cell-based
Counter-ions that a name gives are not always drawn.

| compound | BAF3-FGFR3 (MIN IL3) pIC50 |
| --- | --- |
| CNC(=O)c1cc(F)cc(N(Cc2ncc[nH]2)c2ccc3ncc(-c4cnn(C)c4)nc3n2)c1 | ~7.74 |
| COc1cc(OC)c(F)c(N(Cc2ncc[nH]2)c2ccc3ncc(-c4cnn(C)c4)nc3n2)c1 [23-hydrochloric acid salt] | ~8.58 |
| COc1cc(OC)cc(N(c2ccc3ncc(-c4cnn(C)c4)nc3n2)C(C)c2ncc[nH]2)c1 (centres unmarked) | ~8.63 |
| COc1cc(OC)c(F)c(N(Cc2cn[nH]c2)c2ccc3ncc(-c4cnn(C)c4)nc3n2)c1 | ~7.57 |
| COc1cc(OC)c(F)c(N(CC#N)c2ccc3ncc(-c4cnn(C)c4)nc3n2)c1F | ~8.04 |
